EXPERIMENTAL_TARGET: Voltage-gated potassium channel subunit beta-2 (Rattus norvegicus)
EXPERIMENTAL_PROTOCOL: KvBeta enzyme negative modulators, primary screen, biochemical, NADPH fluorescence (AID 622);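 note: slope of raw intensity against log time taken from 70 to 1610 s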
TEST_PARAMETERS: recombinant KvBeta, 4-cyanobenzaldehyde reduction, at 10 µM, active compounds read high

MOLECULE | fluorescence slope
COc1cccc(-c2nc3n(n2)C(c2cccs2)C(C(=O)Nc2cccnc2)=C(C)N3)c1 (stereo not given) | -0.365
O=C(CCN1C(=O)C2C3C=CC(C3)C2C1=O)NC1CCCc2ccccc21 (stereo not given) | -0.441
COC(=O)c1ccc(C2/C(=C(\O)c3ccc4c(c3)OCCO4)C(=O)C(=O)N2CCCN(C)C)cc1 (stereo not given) | -0.442
O=C(NCc1ccco1)C(c1ccco1)N(C(=O)Cn1nnc2ccccc21)c1ccc2c(c1)CCC2 (stereo not given) | -0.519
CCO/C(C)=N/n1c2nc3ccccc3nc2c2c(=O)n(Cc3ccccc3Cl)c(C)nc21 | -0.455
CC(C)N(C(=O)CSc1nnc(-c2cc3ccccc3cc2O)n1Cc1ccco1)C(C)C | -0.47
CCOc1cccc(-c2nnc3sc(COc4ccc(OC)cc4)nn23)c1 | -0.433
CC(=O)NCC(=O)OCN1C(=O)c2ccccc2C1=O | -0.376
CCc1nc(NCC2CCCO2)c(C#N)c2c1COC(C)(C)C2 (stereo not given) | -0.316
COC(=O)CC(C(=O)Nc1cc(C(=O)OC)cc(C(=O)OC)c1)N1CCN(C)CC1 (stereo not given) | -0.547
